system-tested: Bile acid receptor (Homo sapiens) (UniProt Q96RI1)
Sequence (Q96RI1 whole entry, looked up): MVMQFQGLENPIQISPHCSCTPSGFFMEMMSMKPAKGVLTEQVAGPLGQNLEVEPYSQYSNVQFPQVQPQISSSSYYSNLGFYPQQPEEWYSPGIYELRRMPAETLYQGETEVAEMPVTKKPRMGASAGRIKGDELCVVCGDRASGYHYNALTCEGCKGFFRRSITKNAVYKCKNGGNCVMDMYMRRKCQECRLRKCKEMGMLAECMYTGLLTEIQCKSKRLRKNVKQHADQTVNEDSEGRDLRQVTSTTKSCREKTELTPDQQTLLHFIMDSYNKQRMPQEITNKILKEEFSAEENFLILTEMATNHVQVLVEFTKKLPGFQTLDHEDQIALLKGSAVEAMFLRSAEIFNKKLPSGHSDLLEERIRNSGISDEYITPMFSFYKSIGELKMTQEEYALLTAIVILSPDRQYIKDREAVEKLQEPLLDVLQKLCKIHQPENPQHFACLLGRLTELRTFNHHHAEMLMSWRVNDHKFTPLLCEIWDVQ
assay-name: ATG_IR1_CIS: Attagene CIS-FACTORIAL HepG2 Assay for human Nuclear Receptor Subfamily 1 Group H Member 4 (NR1H4), IR1 submotif (AID 2282946)
condition-summary: IR1 reporter transcription, actives raise or lower the signal
Active and inactive are the calls of the source. The calls were made as follows: active = hit-call score of the fitted dose curve at least 0.9, where 1 is the maximum; inactive = score below 0.9.
endpoint-name: AC50

Study these solved cases before continuing.
{"columns": ["compound", "AC50"],
 "data": [
  ["CCCC(=O)OCc1ccccc1", "inactive"],
  ["Nc1ccc(-c2ccc(F)cc2)cc1", "inactive"],
  ["C#CC1(O)CC[C@H]2[C@@H]3CCC4=CCCC[C@@H]4[C@H]3CC[C@@]21C (some centres not stated)", "0.849 µM (active)"],
  ["CCCCCCCCCCOS(=O)(=O)O", "inactive"],
  ["C/C=C\\C/C=C/CCCCCCCCOC(C)=O", "122 µM (active)"],
  ["O=C1CCCCCN1SSN1CCCCCC1=O", "inactive"]
]}

The record that follows has no AC50 shown yet.
Given the compound NC(=O)NNC(N)=O , what is its reported AC50?
inactive
